experiment notes: Therapeutic index, ratio of LC50 for human SF268 cells to GI50 for human SF268 cells
Format: cell-based, SF-268
condition info: read-out: TI
assay metric: selectivity ratio
Write no unit; give the number alone.

Example entries and their recorded answers appear below.
compound | selectivity ratio
O=C1/C(=C/c2c[nH]c3ccccc23)CNC/C1=C\c1c[nH]c2ccccc12 | 2.5
COc1cc(/C=C/C(=O)CC(=O)/C=C/c2ccc(O)c(OC)c2)ccc1O [CURCUMIN] | 11.9
Cc1ccsc1/C=C1\CNC/C(=C\c2sccc2C)C1=O | 1.9

Data request: // query selectivity ratio value for entry Cc1ccc(/C=C2\CNC/C(=C\c3ccc(C)s3)C2=O)s1
Data returned: 1.5

Data request: If you can, please state the reported selectivity ratio value of O=C1/C(=C/c2cccs2)CNC/C1=C\c1cccs1 .
Data returned: 1

Data request: Look up selectivity ratio: O=C1/C(=C/c2ccccc2)CNC/C1=C\c1ccccc1
Data returned: 10

* * *

experiment notes: Lipophilicity, RM of the compound assessed by RPTLC
Assay type: physicochemical
Rm for assorted compounds

Worked examples follow.
chemical structure | Rm
O=C1/C(=C/c2ccccc2)CNC/C1=C\c1ccccc1 | 0.135
Cc1ccc(/C=C2\CNC/C(=C\c3ccc(C)s3)C2=O)s1 | 0.031
O=C1/C(=C/c2c[nH]c3ccccc23)CNC/C1=C\c1c[nH]c2ccccc12 | 0.597
Cc1ccsc1/C=C1\CNC/C(=C\c2sccc2C)C1=O | -0.03
O=C1/C(=C/c2cccs2)CNC/C1=C\c1cccs1 | 0.176
O=C1/C(=C/c2ccc(OCc3ccc(Br)cc3)cc2)CNC/C1=C\c1ccc(OCc2ccc(Br)cc2)cc1 | 0.076

Data request: // lookup Rm for O=C1/C(=C/c2c[nH]cn2)CNC/C1=C\c1c[nH]cn1
Data returned: -0.552

Data request: What Rm value was documented for this compound, O=C1/C(=C/c2ccc3[nH]ccc3c2)CNC/C1=C\c1ccc2[nH]ccc2c1 ?
Data returned: 0.166

* * *

experiment notes: Therapeutic index, ratio of LC50 for human NCI-H460 cells to GI50 for human NCI-H460 cells
Format: cell-based
condition info: read-out: TI
Lab note: anything with selectivity ratio at or over 2 counts as met; the rest go in not met.

Recorded results for 4 compounds are shown here.
chemical structure | label value
COc1cc(/C=C/C(=O)CC(=O)/C=C/c2ccc(O)c(OC)c2)ccc1O | met
O=C1/C(=C/c2ccccc2)CNC/C1=C\c1ccccc1 | met
Cc1ccsc1/C=C1\CNC/C(=C\c2sccc2C)C1=O | not met
O=C1/C(=C/c2c[nH]c3ccccc23)CNC/C1=C\c1c[nH]c2ccccc12 | met

Read the next record carefully.
Data request: # bool: selectivity ratio of Cc1ccc(/C=C2\CNC/C(=C\c3ccc(C)s3)C2=O)s1 >= 2
Data returned: not met

* * *

System: SF-268
experiment notes: Antiproliferative activity against human SF268 cells after 48 hrs by sulforhodamine B assay
Format: functional
condition info: SF-268, 48 h
assay metric: TGI

chemical structure | assay target | TGI
O=C1/C(=C/c2ccc3[nH]ccc3c2)CNC/C1=C\c1ccc2[nH]ccc2c1 | SF-268 | > 100 µM

Data request: Form field: TGI recorded for COc1cc(/C=C/C(=O)CC(=O)/C=C/c2ccc(O)c(OC)c2)ccc1O with SF-268 (enter value)
Data returned: 9.2 µM

Data request: Tell me reported TGI for O=C1/C(=C/c2c[nH]cn2)CNC/C1=C\c1c[nH]cn1 , tested with SF-268.
Data returned: > 100 µM

Data request: What value of TGI on SF-268 does O=C1/C(=C/c2cccs2)CNC/C1=C\c1cccs1 have?
Data returned: > 100 µM

Data request: What TGI appears in the records for this molecule with SF-268? Cc1ccsc1/C=C1\CNC/C(=C\c2sccc2C)C1=O
Data returned: > 100 µM
